# test-target: dopamine transporter (DAT) (Rattus norvegicus)
# protocol-description: Dopamine reuptake ([^3H]dopamine uptake) inhibition in rat brain synaptosomes
# test-context: DAT Uptake IC50, [3H]DA uptake inhibition; mean ± S.D., n = 3
endpoint-name: pIC50
Scale explanation: pIC50 corresponds to minus log10 of a concentration expressed in moles per litre.

QUERY: Given `OC(CNc1nc(-c2cnc3nccn3c2)nc2ccccc12)(c1ccccc1)c1ccccc1` , state its recorded pIC50.
RESULT: 8.03

QUERY: Given `Cc1cc2nccn2cc1-c1nc(NCC(c2ccccc2)c2ccccc2)c2ccccc2n1` , state its recorded pIC50.
RESULT: 9.30

QUERY: Given `c1ccc(C(CNc2nc(-c3ccc4ncnn4c3)nc3ccccc23)c2ccccc2)cc1` , state its recorded pIC50.
RESULT: 8.06

Below: the item to evaluate.
QUERY: Given Cc1cc2nccn2cc1-c1nc(NCC(c2ccccc2)c2ccc[nH]2)c2ccccc2n1 (stereo not shown) , state its recorded pIC50.
RESULT: 8.92

###

# test-target: dopamine transporter (DAT) (Rattus norvegicus, UniProt P23977)
# Sequence (P23977 whole entry): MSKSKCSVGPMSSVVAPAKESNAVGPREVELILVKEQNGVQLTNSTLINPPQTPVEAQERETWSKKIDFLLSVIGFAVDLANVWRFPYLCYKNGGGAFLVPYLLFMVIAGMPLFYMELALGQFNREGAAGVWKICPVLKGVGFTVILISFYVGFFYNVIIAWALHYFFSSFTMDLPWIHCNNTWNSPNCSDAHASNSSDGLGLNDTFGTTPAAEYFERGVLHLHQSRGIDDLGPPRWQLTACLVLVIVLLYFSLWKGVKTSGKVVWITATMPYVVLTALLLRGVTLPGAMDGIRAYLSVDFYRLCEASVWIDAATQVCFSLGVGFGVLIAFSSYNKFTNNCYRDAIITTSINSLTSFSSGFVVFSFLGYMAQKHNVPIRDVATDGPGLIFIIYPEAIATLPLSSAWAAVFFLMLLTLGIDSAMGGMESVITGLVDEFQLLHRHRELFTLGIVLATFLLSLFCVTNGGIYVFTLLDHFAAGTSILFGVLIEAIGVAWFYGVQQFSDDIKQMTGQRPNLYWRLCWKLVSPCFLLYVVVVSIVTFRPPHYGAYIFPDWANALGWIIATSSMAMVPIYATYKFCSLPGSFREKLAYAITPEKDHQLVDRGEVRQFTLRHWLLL
# protocol-description: Dopamine reuptake ([^3H]dopamine uptake) inhibition in rat brain synaptosomes
# test-context: read-out: DA Uptake Emax (% I ± SD)
Entries annotated with measured Emax
Reply with just the number (in %).

QUERY: Given `COc1cc2nc(-c3cnc(N(C)C)nc3)nc(NCC(c3ccccc3)c3ccccc3)c2cc1OC` , state its recorded Emax.
RESULT: 100

QUERY: Given `c1ccc(C(CNc2nc(-n3ccnc3)nc3ccccc23)c2ccccc2)cc1` , state its recorded Emax.
RESULT: 73

QUERY: Given `Cc1ccc(-c2nc(NCC(c3ccccc3)c3ccccc3)c3ccccc3n2)c2nccn12` , state its recorded Emax.
RESULT: 92

QUERY: Given `Cn1cnc2ccc(-c3nc(NCC(c4ccccc4)c4ccccc4)c4ccccc4n3)cc21` , state its recorded Emax.
RESULT: 75

QUERY: Given Cc1cc2nccn2cc1-c1nc(NC(Cc2ccccc2)c2ccccc2)c2ccccc2n1 (centres unmarked) , state its recorded Emax.
RESULT: 76

Others:
QUERY: Given `COc1ncc(-c2nc(NCC(c3ccccc3)c3ccccc3)c3ccccc3n2)cn1` , state its recorded Emax.
RESULT: 71

QUERY: Given `Nc1ncc(-c2nc(NCC(c3ccccc3)c3ccccc3)c3ccccc3n2)cn1` , state its recorded Emax.
RESULT: 81

###

# test-target: serotonin transporter (SERT) (Rattus norvegicus, UniProt P31652)
# Construct: Freshly removed whole brain minus cerebellum and caudate was homogenized; from tissue; host or cells: rat whole brain minus cerebellum and caudate, synaptosomes
# Sequence (P31652 whole entry): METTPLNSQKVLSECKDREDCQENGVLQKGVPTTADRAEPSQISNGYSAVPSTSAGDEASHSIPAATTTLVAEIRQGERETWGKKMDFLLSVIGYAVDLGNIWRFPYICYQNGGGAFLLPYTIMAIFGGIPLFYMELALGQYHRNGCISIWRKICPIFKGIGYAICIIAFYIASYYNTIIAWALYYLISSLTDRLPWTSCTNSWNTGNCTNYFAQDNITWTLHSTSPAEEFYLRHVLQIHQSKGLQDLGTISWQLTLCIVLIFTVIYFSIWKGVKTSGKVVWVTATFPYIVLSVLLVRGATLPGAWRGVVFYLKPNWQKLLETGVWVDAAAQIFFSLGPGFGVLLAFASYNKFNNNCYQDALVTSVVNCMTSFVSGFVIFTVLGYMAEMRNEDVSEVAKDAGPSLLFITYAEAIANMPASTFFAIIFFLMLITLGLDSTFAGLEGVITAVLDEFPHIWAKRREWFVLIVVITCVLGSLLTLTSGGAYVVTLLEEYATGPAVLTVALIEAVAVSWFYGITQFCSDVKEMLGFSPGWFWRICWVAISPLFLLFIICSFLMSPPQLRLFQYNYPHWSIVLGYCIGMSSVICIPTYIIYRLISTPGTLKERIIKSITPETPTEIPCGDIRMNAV
# protocol-description: Serotonin reuptake ([^3H]serotonin uptake) inhibition in rat brain synaptosomes
# Assay type: biochemical
# test-context: mean ± S.D., n = 3; read-out: SERT Uptake IC50
Entries annotated with measured IC50
Reply with just the number (in nM).

QUERY: Given `CN(C)c1ncc(-c2nc(NCC(O)(c3ccccc3)c3ccccc3)c3ccccc3n2)cn1` , state its recorded IC50.
RESULT: 54

QUERY: Given Cc1cc2nccn2cc1-c1nc(NCC(c2ccccc2)c2ccncc2)c2ccccc2n1 (stereo not shown) , state its recorded IC50.
RESULT: 2.4

QUERY: Given c1ccc(C(CNc2nc(-c3cnc4nccn4c3)nc3ccccc23)c2ccccn2)cc1 (stereo not shown) , state its recorded IC50.
RESULT: 28

Below: the item to evaluate.
QUERY: Given `Cc1cc(NS(C)(=O)=O)ccc1-c1nc(NCC(c2ccccc2)c2ccccc2)c2ccccc2n1` , state its recorded IC50.
RESULT: 20

###

# test-target: dopamine transporter (DAT) (Rattus norvegicus)
# protocol-description: Dopamine transporter-mediated [^3H]MPP^+ release, shift of D-amphetamine-induced release, rat caudate synaptosomes
# Type: biochemical
# Set-up: Freshly removed caudate was homogenized in 10% ice-cold sucrose; from tissue; host or cells: rat caudate synaptosomes
# test-context: apparent Ke from shift of D-amphetamine-induced [^3H]MPP^+ release; compound at the concentration of column 1; read-out: Ke App
Entries annotated with measured Kb
Reply with just the number (in nM).

QUERY: Given CN(C)c1ncc(-c2nc(NCC(c3ccccc3)c3ccccc3)c3ccccc3n2)cn1 [compound 16] , state its recorded Kb.
RESULT: 1820

QUERY: Given c1ccc(C(CCNc2nc(-c3ccc4[nH]ccc4c3)nc3ccccc23)c2ccccc2)cc1 [compound 21] , state its recorded Kb.
RESULT: 886

Others:
QUERY: Given c1ccc(C(CNc2nc(-c3ccc4nccn4c3)nc3ccccc23)c2ccc[nH]2)cc1 (stereo not shown) [compound 117] , state its recorded Kb.
RESULT: 1600

QUERY: Given c1ccc(C(Nc2nc(-c3ccc4[nH]ccc4c3)nc3ccccc23)c2ccccc2)cc1 [compound 13] , state its recorded Kb.
RESULT: 25800

###

# test-target: UniProt Q9WTR4
# protocol-description: Norepinephrine reuptake ([^3H]norepinephrine uptake) inhibition in rat brain synaptosomes
# test-context: mean ± S.D., n = 3
Assign YES to entries whose NET Uptake Emax meets or exceeds 70%; assign NO to the rest.

QUERY: Threshold query (NET Uptake Emax >= 70%) on COC(=O)[C@H]1[C@@H](OC(=O)c2ccccc2)C[C@@H]2CC[C@H]1N2C [cocaine, reference compound]
RESULT: YES

QUERY: Threshold query (NET Uptake Emax >= 70%) on Cc1cc2nccn2cc1-c1nc(NCC(c2ccccc2)c2ccncc2)c2ccccc2n1 (stereo not shown) [compound 151]
RESULT: NO

QUERY: Threshold query (NET Uptake Emax >= 70%) on CNc1ncc(-c2nc(NCC(c3ccccc3)c3ccccc3)c3ccccc3n2)cn1 [compound 41]
RESULT: YES

Others:
QUERY: Threshold query (NET Uptake Emax >= 70%) on CS(=O)(=O)Nc1ccc(-c2nc(NCC(c3ccccc3)c3ccncc3)c3ccccc3n2)cc1 (stereo not shown) [SRI-30524]
RESULT: YES

QUERY: Threshold query (NET Uptake Emax >= 70%) on c1ccc(C(CNc2nc(-c3ccc4nccn4c3)nc3ccccc23)c2cccnc2)cc1 (stereo not shown) [compound 131]
RESULT: YES

QUERY: Threshold query (NET Uptake Emax >= 70%) on OC(CNc1nc(-c2cnc3nccn3c2)nc2ccccc12)(c1ccccc1)c1ccccc1 [compound 99]
RESULT: YES

QUERY: Threshold query (NET Uptake Emax >= 70%) on c1ccc(C(CNc2nc(-c3cnc4nccn4c3)nc3ccccc23)c2ccccn2)cc1 (stereo not shown) [compound 98]
RESULT: YES

###

# test-target: UniProt:P23977
# protocol-description: Dopamine reuptake ([^3H]dopamine uptake) inhibition in rat brain synaptosomes
# test-context: DAT Uptake IC50, [3H]DA uptake inhibition; mean ± S.D., n = 3
pIC50: −log10 of the molar value.
Assign criterion met to entries whose pIC50 meets or exceeds 8; assign criterion not met to the rest.

Consider the following illustrative entries.
QUERY: Threshold query (pIC50 >= 8) on `Cc1cc2nccn2cc1-c1nc(NCC(O)(c2ccccc2)c2ccccc2)c2ccccc2n1`
RESULT: criterion met

QUERY: Threshold query (pIC50 >= 8) on `CS(=O)(=O)Nc1ccc(-c2nc(NCC(c3ccccc3)c3ccccc3)c3ccccc3n2)cc1`
RESULT: criterion met

QUERY: Threshold query (pIC50 >= 8) on Cc1cc2nccn2cc1-c1nc(NCC(c2ccccc2)c2ccncc2)c2ccccc2n1 (centres unmarked)
RESULT: criterion met

Others:
QUERY: Threshold query (pIC50 >= 8) on c1ccc(C(CNc2nc(-c3cnc4nccn4c3)nc3ccccc23)c2ccccn2)cc1 (centres unmarked)
RESULT: criterion not met

###

# test-target: dopamine transporter (DAT) (Rattus norvegicus)
# protocol-description: Dopamine reuptake ([^3H]dopamine uptake) inhibition in rat brain synaptosomes
# test-context: read-out: Emax for DAT Uptake Inhibition
Entries annotated with measured Emax

QUERY: Notebook: pull reported Emax for dopamine transporter (DAT) (Rattus norvegicus), entry Cc1cc2nccn2cc1-c1nc(NCC(c2ccccc2)c2ccc[nH]2)c2ccccc2n1 (stereo not shown)
RESULT: 69%

QUERY: Notebook: pull reported Emax for dopamine transporter (DAT) (Rattus norvegicus), entry Cl.Fc1ccc2c(NCC(c3ccccc3)c3ccccc3)nc(-c3ccc4nccn4c3)nc2c1 [compound 124, Hydrochloride]
RESULT: 69%

QUERY: Notebook: pull reported Emax for dopamine transporter (DAT) (Rattus norvegicus), entry c1ccc(C(CNc2nc(-c3cnc4nccn4c3)nc3ccccc23)C2CCCCC2)cc1 (stereo not shown)
RESULT: 70%

Others:
QUERY: Notebook: pull reported Emax for dopamine transporter (DAT) (Rattus norvegicus), entry c1ccc(C(CNc2nc(-c3ccc4nccn4c3)nc3ccccc23)c2ccc[nH]2)cc1 (stereo not shown)
RESULT: 64%

###

# test-target: UniProtKB P23977
# protocol-description: Dopamine transporter-mediated [^3H]MPP^+ release, shift of D-amphetamine-induced release, rat caudate synaptosomes
# Format: biochemical
# Parameters: Freshly removed caudate was homogenized in 10% ice-cold sucrose; from tissue; host or cells: rat caudate synaptosomes
# test-context: apparent Ke from shift of D-amphetamine-induced [^3H]MPP^+ release; compound at the concentration of column 1; read-out: Ke App
endpoint-name: Kb (nM)
Reply with just the number (in nM).

Before answering, review these 7 worked examples.
QUERY: Given Cc1cc2nccn2cc1-c1nc(NCC(c2ccccc2)c2ccncc2)c2ccccc2n1 (centres unmarked) , state its recorded Kb.
RESULT: 400

QUERY: Given `Cc1cc2nccn2cc1-c1nc(NCC(c2ccccc2)c2ccccc2)c2ccccc2n1` , state its recorded Kb.
RESULT: 267

QUERY: Given c1ccc(C(CNc2nc(-c3cnc4nccn4c3)nc3ccccc23)c2ccncc2)cc1 (centres unmarked) , state its recorded Kb.
RESULT: 1200

QUERY: Given c1ccc(C(CNc2nc(-c3cnc4nccn4c3)nc3ccccc23)C2CCCCC2)cc1 (centres unmarked) , state its recorded Kb.
RESULT: 1600

QUERY: Given `c1ccc(C(CNc2nc(-c3ccc4[nH]ccc4c3)nc3ccccc23)c2ccccc2)cc1` , state its recorded Kb.
RESULT: 456

QUERY: Given `CN(C)c1ncc(-c2nc(NC(c3ccccc3)c3ccccc3)c3ccccc3n2)cn1` , state its recorded Kb.
RESULT: 7050

QUERY: Given `CN(C)c1ccc(-c2nc(NCC(c3ccccc3)c3ccccc3)c3ccccc3n2)cn1` , state its recorded Kb.
RESULT: 912

Below: the item to evaluate.
QUERY: Given `CN(C)c1ncc(-c2nc(NCCC(c3ccccc3)c3ccccc3)c3ccccc3n2)cn1` , state its recorded Kb.
RESULT: 64600
